PROCEDURE DETAILS: in vitro
Format: cell-based
MEASUREMENT PARAMETERS: African green monkey, CC50
RECORDED ENDPOINT: CC50 at 3 days (µM)
Give just the number in µM; leave the unit off.

{"MOLECULE": "COc1cc(NC(C(=O)c2c[nH]c3ccc(C(F)(F)F)cc23)c2ccc(Cl)cc2OC)cc(S(C)(=O)=O)c1 (single isomer, unassigned) [Compound 8B]", "CC50 at 3 days, µM": 1.9}

Now consider the entry below.
Short answer for COc1cc(NC(C(=O)c2c[nH]c3cc(OC)ccc23)c2ccc(Cl)cc2OC)cc(S(C)(=O)=O)c1 (single isomer, unassigned) [Compound 3A] : CC50 at 3 days was 5.5

###

PROCEDURE DETAILS: in vitro
Type: cell-based
MEASUREMENT PARAMETERS: African green monkey, CC50
Measured CC50 at 3 days values are reported for all entries that follow.
Output spec: scalar in µM, unitless text.

{"COMPOUND": "COc1cc(NC(C(=O)c2c[nH]c3c(C)c(F)ccc23)c2ccc(Cl)cc2OC)cc(S(C)(=O)=O)c1 (single isomer, unassigned)", "CC50 at 3 days, µM": 5.3}
{"COMPOUND": "COc1cc(NC(C(=O)c2c[nH]c3cc(F)c(C)cc23)c2ccc(Cl)cc2OC)cc(S(C)(=O)=O)c1 (single isomer, unassigned)", "CC50 at 3 days, µM": 2.2}
{"COMPOUND": "COc1cc(NC(C(=O)c2c[nH]c3cc(F)ccc23)c2ccc(Cl)cc2OC)cc(S(C)(=O)=O)c1 (single isomer, unassigned)", "CC50 at 3 days, µM": 5}
{"COMPOUND": "COc1cc(NC(C(=O)c2c[nH]c3cc(OC)c(OC(F)(F)F)cc23)c2ccc(Cl)cc2OC)cc(S(C)(=O)=O)c1 (single isomer, unassigned) [Compound 10A]", "CC50 at 3 days, µM": 1.6}
{"COMPOUND": "COc1cc(NC(C(=O)c2c[nH]c3cc(OC)c(F)cc23)c2ccc(Cl)cc2OC)cc(S(C)(=O)=O)c1 (single isomer, unassigned)", "CC50 at 3 days, µM": 5.2}

Continue with the compound presented below.
Memo: COc1cc(NC(C(=O)c2c[nH]c3ccc(OC(F)(F)F)cc23)c2ccc(Cl)cc2OC)cc(S(C)(=O)=O)c1 (single isomer, unassigned) , reported CC50 at 3 days: 1.7

###

CC50 by entry:
Test system: Vero cells
MEASUREMENT PARAMETERS: African green monkey
Please state the figure in µM; there is no need to write the unit.

Example cases with answers are listed next.
{"COMPOUND": "COc1cc(NC(C(=O)c2c[nH]c3cc(OC)c(C)cc23)c2ccc(Cl)cc2OC)cc(S(C)(=O)=O)c1 (single isomer, unassigned) [Compound 4B]", "ASSAYED TARGET": "Vero cells", "READOUT UNITS": "µM", "CC50": 12}
{"COMPOUND": "COc1cc(NC(C(=O)c2c[nH]c3cc(F)ccc23)c2ccc(Cl)cc2OC)cc(S(C)(=O)=O)c1 (single isomer, unassigned) [Compound 1A]", "ASSAYED TARGET": "Vero cells", "READOUT UNITS": "µM", "CC50": 4.3}
{"COMPOUND": "COc1cc(NC(C(=O)c2c[nH]c3cc(OC)c(OC(F)(F)F)cc23)c2ccc(Cl)cc2OC)cc(S(C)(=O)=O)c1 (single isomer, unassigned) [Compound 10A]", "ASSAYED TARGET": "Vero cells", "READOUT UNITS": "µM", "CC50": 2.6}

CC50 measured on COc1cc(NC(C(=O)c2c[nH]c3ccc(C(F)(F)F)cc23)c2ccc(Cl)cc2OC)cc(S(C)(=O)=O)c1 (single isomer, unassigned) [Compound 8A] = 7.4

According to the records, this compound COc1cc(NC(C(=O)c2c[nH]c3c(C)c(F)ccc23)c2ccc(Cl)cc2OC)cc(S(C)(=O)=O)c1 (single isomer, unassigned) [Compound 2A] displays CC50 of 4.8

Given item COc1cc(NC(C(=O)c2c[nH]c3cc(OC)c(F)cc23)c2ccc(Cl)cc2OC)cc(S(C)(=O)=O)c1 (single isomer, unassigned) [Compound 5B] , the value recorded as its CC50 is 13

###

A collection of compounds and their measured log10 of EC50
Test system: DENV-2 16681 strain
PROCEDURE DETAILS: DENV-2 antiviral assay (eGFP fluorescence, Vero cells)
Format: cell-based, Dengue virus
MEASUREMENT PARAMETERS: DENV-2 16681 eGFP, MOI 0.5, 3 days
Quick note: numbers are log10 of EC50, with nM as the unit.

Consider the following illustrative entries.
{"COMPOUND": "COc1cc(NC(C(=O)c2c[nH]c3cc(F)c(C)cc23)c2ccc(Cl)cc2OC)cc(S(C)(=O)=O)c1 (single isomer, unassigned) [Compound 7B]", "ASSAYED TARGET": "DENV-2 16681 strain", "log10 of EC50": -0.70}
{"COMPOUND": "COc1cc(NC(C(=O)c2c[nH]c3c(C)cc(OC(F)(F)F)cc23)c2ccc(Cl)cc2OC)cc(S(C)(=O)=O)c1 (single isomer, unassigned) [Compound 11B]", "ASSAYED TARGET": "DENV-2 16681 strain", "log10 of EC50": 0.61}
{"COMPOUND": "COc1cc(NC(C(=O)c2c[nH]c3c(C)c(F)ccc23)c2ccc(Cl)cc2OC)cc(S(C)(=O)=O)c1 (single isomer, unassigned) [Compound 2B]", "ASSAYED TARGET": "DENV-2 16681 strain", "log10 of EC50": 1.41}

Let me check: COc1cc(NC(C(=O)c2c[nH]c3cc(OC)c(C)cc23)c2ccc(Cl)cc2OC)cc(S(C)(=O)=O)c1 (single isomer, unassigned) [Compound 4B] , system DENV-2 16681 strain, measured log10 of EC50 is 1.56

The compound COc1cc(NC(C(=O)c2c[nH]c3cc(OC)c(F)cc23)c2ccc(Cl)cc2OC)cc(S(C)(=O)=O)c1 (single isomer, unassigned) [Compound 5B] , when measured on DENV-2 16681 strain, yielded log10 of EC50 of 1.83

Observed log10 of EC50, DENV-2 16681 strain, COc1cc(NC(C(=O)c2c[nH]c3c(C)c(OC)ccc23)c2ccc(Cl)cc2OC)cc(S(C)(=O)=O)c1 (single isomer, unassigned) [Compound 6A] : -1.17

###

System: Vero cells
MEASUREMENT PARAMETERS: African green monkey
# CC50 per record follows
Your answer is read as µM, so omit the unit and give the number.

compound COc1cc(NC(C(=O)c2c[nH]c3cc(OC)c(F)cc23)c2ccc(Cl)cc2OC)cc(S(C)(=O)=O)c1 (single isomer, unassigned) [Compound 5A] , CC50 observed: 5

Value of measured CC50 for the entry COc1cc(NC(C(=O)c2c[nH]c3c(C)cc(OC(F)(F)F)cc23)c2ccc(Cl)cc2OC)cc(S(C)(=O)=O)c1 (single isomer, unassigned) [Compound 11A] : 2.6

CC50 reported for this compound COc1cc(NC(C(=O)c2c[nH]c3cc(OC)c(C)cc23)c2ccc(Cl)cc2OC)cc(S(C)(=O)=O)c1 (single isomer, unassigned) [Compound 4A] : 4.2

Recorded CC50 (compound COc1cc(NC(C(=O)c2c[nH]c3cc(F)ccc23)c2ccc(Cl)cc2OC)cc(S(C)(=O)=O)c1 (racemic) [Compound 1] ): 5.5

###

Test system: Vero cells
MEASUREMENT PARAMETERS: African green monkey
RECORDED ENDPOINT: CC50 (µM)
Please reply with the bare figure in µM and do not write the unit itself.

{"COMPOUND": "COc1cc(NC(C(=O)c2c[nH]c3ccc(OC(F)(F)F)cc23)c2ccc(Cl)cc2OC)cc(S(C)(=O)=O)c1 (single isomer, unassigned) [Compound 9B]", "READOUT UNITS": "µM", "CC50": 6.2}
{"COMPOUND": "COc1cc(NC(C(=O)c2c[nH]c3cc(OC)c(OC(F)(F)F)cc23)c2ccc(Cl)cc2OC)cc(S(C)(=O)=O)c1 (single isomer, unassigned) [Compound 10B]", "READOUT UNITS": "µM", "CC50": 9.8}
{"COMPOUND": "COc1cc(NC(C(=O)c2c[nH]c3cc(F)c(C)cc23)c2ccc(Cl)cc2OC)cc(S(C)(=O)=O)c1 (single isomer, unassigned) [Compound 7A]", "READOUT UNITS": "µM", "CC50": 6.8}
{"COMPOUND": "COc1cc(NC(C(=O)c2c[nH]c3c(C)cc(OC(F)(F)F)cc23)c2ccc(Cl)cc2OC)cc(S(C)(=O)=O)c1 (single isomer, unassigned) [Compound 11B]", "READOUT UNITS": "µM", "CC50": 9.2}

COc1cc(NC(C(=O)c2c[nH]c3cc(F)c(C)cc23)c2ccc(Cl)cc2OC)cc(S(C)(=O)=O)c1 (single isomer, unassigned) [Compound 7B] yielded CC50 of 3.2
